Every entry's value here was drawn from patent US12146004B2.

Tested on: Pseudomonas aeruginosa
Type: cell-based
Numbered stars: 1 amine (or outer) side, 2 acyl side, 3 side chain; on linkers, the order of the positions; unused ones are H or OH. Bridge positions count the residues as written; N and C are the ends. Square brackets hold non-standard residues; d marks the D form. Peptide text beside a SMILES is read from it. * marks the point of attachment. ξ: configuration not given here. X5 = CCCCCCCCc1ccc(C[C@@H](N[*:1])C(=O)[*:2])cc1; dBip = N[C@H](Cc1ccc(-c2ccccc2)cc1)C(=O)O; Octanoyl(6-Me) = CCC(C)CCCCC(=O)*; X3 = CCCCCCCCN1CCNC[C@H]1C(=O)*; dCha = N[C@H](CC1CCCCC1)C(=O)O; Thr(3ξ) = CC(O)[C@H](N)C(=O)O; X4 = CC(C)CC1CNCC(C(=O)*)C1; Dab = NCC[C@H](N)C(=O)O; Dap = NC[C@H](N)C(=O)O
quantity: MIC P. aeruginosa 068 (µg/mL)
Note: unit µg/mL is implicit; provide only the numeric part.

Observe how each entry below is paired with its result.
INSERT INTO measurements (compound, target_under_test, observed) VALUES
  ('CCCCCCCCN1CCNC[C@H]1C(=O)N[C@H](C(=O)N[C@@H](CN)C(=O)N[C@H]1CCNC(=O)[C@H]([C@@H](C)O)NC(=O)[C@H](CCN)NC(=O)[C@H](CCN)NC(=O)[C@H](CC(C)C)NC(=O)[C@@H](Cc2ccc(-c3ccccc3)cc2)NC(=O)[C@H](CCN)NC1=O)C(C)O (stereo partly drawn) [Example 30] (X3-[Thr(3ξ)][Dap][Dab][Dab][dBip]L[Dab][Dab]T; lactam 3-C)', 'Pseudomonas aeruginosa', 2),
  ('CCC(C)CCCCC(=O)N[C@@H](CCN)C(=O)N[C@H](C(=O)N[C@@H](CCN)C(=O)N[C@H]1CCNC(=O)[C@H](C(C)O)NC(=O)[C@H](CCN)NC(=O)[C@H](CCN)NC(=O)[C@H](CC(C)C)NC(=O)[C@@H](CC2CCCCC2)NC(=O)[C@H](CCN)NC1=O)C(C)O (stereo partly drawn) [Example 22] ({Octanoyl(6-Me)}-[Dab][Thr(3ξ)][Dab][Dab][Dab][dCha]L[Dab][Dab][Thr(3ξ)]; lactam 4-C)', 'Pseudomonas aeruginosa', 4);

Now consider the entry below.
Task: Which MIC P. aeruginosa 068 reading was recorded for the compound CCCCCCCCc1ccc(C[C@H]2NC(=O)[C@H](CCN)NC(=O)[C@@H](NC(=O)[C@H](CN)NC(=O)[C@@H](NC(=O)C3CNCC(CC(C)C)C3)C(C)O)CCNC(=O)[C@H]([C@@H](C)O)NC(=O)[C@H](CCN)NC(=O)[C@H](CCN)NC(=O)[C@H](CC(C)C)NC2=O)cc1 (stereo partly drawn) [Example 23] (X4-[Thr(3ξ)][Dap][Dab][Dab][X5]L[Dab][Dab]T; lactam 3-C) ?
Output: 4

###

Form field: MIC E. coli 058 (one value per entry).
Tested on: Escherichia coli
Type: cell-based
Bridge positions count the residues as written; N and C are the ends. Square brackets hold non-standard residues; d marks the D form. Peptide text beside a SMILES is read from it. * marks the point of attachment. ξ: configuration not given here. dCha = N[C@H](CC1CCCCC1)C(=O)O; Thr(3ξ) = CC(O)[C@H](N)C(=O)O; X1 = CC(C)CN1CCNC[C@H]1C(=O)*; Dab = NCC[C@H](N)C(=O)O
The reply should be a number in µg/mL, with the unit left off.

Sample records with MIC E. coli 058:
INSERT INTO assay_data (compound, measurement_units, observed) VALUES
  ('CCCCCCCCC1CNCC1C(=O)N[C@H](C(=O)N[C@@H](CCN)C(=O)N[C@H]1CCNC(=O)[C@H]([C@@H](C)O)NC(=O)[C@H](CCN)NC(=O)[C@H](CCN)NC(=O)[C@H](CC(C)C)NC(=O)[C@@H](Cc2ccccc2-c2ccccc2)NC(=O)[C@H](CCN)NC1=O)C(C)O (single isomer, unassigned; isomer 1) [Example 9]', 'µg/mL', 2),
  ('CC(C)C[C@@H]1NC(=O)[C@@H](CC2CCCCC2)NC(=O)[C@H](CCN)NC(=O)[C@@H](NC(=O)[C@H](CCN)NC(=O)[C@@H](NC(=O)C(CCN)C2CCCCC2)[C@@H](C)O)CCNC(=O)[C@H]([C@@H](C)O)NC(=O)[C@H](CCN)NC(=O)[C@H](CCN)NC1=O (single isomer, unassigned; isomer 2)', 'µg/mL', 4);

Task: Which measured MIC E. coli 058 belongs to CC(C)C[C@@H]1NC(=O)[C@@H](CC2CCCCC2)NC(=O)[C@H](CCN)NC(=O)[C@@H](NC(=O)[C@H](CCN)NC(=O)[C@@H](NC(=O)[C@@H]2CNCCN2CC(C)C)C(C)O)CCNC(=O)[C@H]([C@@H](C)O)NC(=O)[C@H](CCN)NC(=O)[C@H](CCN)NC1=O (stereo partly drawn) [Example 52] (X1-[Thr(3ξ)][Dab][Dab][Dab][dCha]L[Dab][Dab]T; lactam 3-C) , tested on Escherichia coli?
Output: 8
